Numbers sourced from patent US8299074B2.

system: Differentiated U937 cells; test: MTT assay (cell viability); assay type: cell-based, human; conditions: Table 2; loss of cell viability at 1 μg/ml
quantity-name: DU937 (cell viability) MTT assay 24 h

Cc1ccc(-n2nc(C(C)(C)C)cc2NC(=O)Nc2ccc(Oc3ccnc(NC(=O)CNC(N)=O)c3)c3ccccc23)cc1 [Example 14]
− (<=30%)
Cc1ccc(-n2nc(C(C)(C)C)cc2NC(=O)Nc2ccc(Oc3ccnc(NC(=O)CNC(=O)N4CCOCC4)c3)c3ccccc23)cc1 [Example 20]
− (<=30%)
COCC(=O)Nc1cc(Oc2ccc(NC(=O)Nc3cc(C(C)(C)C)nn3-c3ccc(C)cc3)c(C)c2)ccn1 [Example 24]
+ (>30%)
Cc1ccc(-n2nc(C(C)(C)C)cc2NC(=O)Nc2ccc(Oc3ccnc(NC(=O)CNC(=O)c4ccncc4)c3)c3ccccc23)cc1 [Example 17]
+ (>30%)
COCC(=O)Nc1cc(Oc2ccc(NC(=O)Nc3cc(C(C)(C)C)nn3-c3ccc(C)cc3)cc2C)ccn1 [Example 23]
− (<=30%)

###

molecular target: p38 MAPK alpha (MAPK14) (Homo sapiens); construct: purchased Invitrogen; assay: Enzyme inhibition assay, p38 MAPK alpha (FRET, Z-LYTE, via MAPKAP-K2); assay type: biochemical; conditions: Table 2; read-out: Enzyme p38α IC50
Sequence (Q16539 whole entry): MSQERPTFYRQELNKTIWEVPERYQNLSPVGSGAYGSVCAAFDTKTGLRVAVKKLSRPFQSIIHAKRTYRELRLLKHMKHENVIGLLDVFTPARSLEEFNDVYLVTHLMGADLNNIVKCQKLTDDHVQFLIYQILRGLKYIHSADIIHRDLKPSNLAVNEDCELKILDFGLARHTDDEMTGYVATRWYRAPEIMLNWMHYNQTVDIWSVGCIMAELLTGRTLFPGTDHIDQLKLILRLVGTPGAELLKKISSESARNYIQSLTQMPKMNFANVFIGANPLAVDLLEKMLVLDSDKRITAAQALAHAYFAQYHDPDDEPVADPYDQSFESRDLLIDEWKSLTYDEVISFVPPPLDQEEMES
pIC50: −log10 of the molar value.
We begin with a simple list: items and their reported pIC50.
quantity-name: pIC50

COCC(=O)Nc1cc(Oc2ccc(NC(=O)Nc3cc(C(C)(C)CO)nn3-c3ccc(C)cc3)c3ccccc23)ccn1 [Example 9]
> 8.00
CCc1cc(NC(=O)Nc2ccc(Oc3ccnc(NC(=O)COC)c3)c3ccccc23)n(-c2ccc(C)cc2)n1 [Example 7]
> 8.00
COCC(=O)Nc1cc(Oc2ccc(NC(=O)Nc3cc(C(C)(C)C)nn3-c3ccc(C)cc3)c(C)c2C)ccn1 [Example 26]
> 5.30
Cc1ccc(-n2nc(C(C)(C)C)cc2NC(=O)Nc2ccc(Oc3ccnc(NC(=O)CNC(=O)C4CCOCC4)c3)c3ccccc23)cc1 [Example 16]
> 8.00
COCC(=O)Nc1cc(Oc2ccc(NC(=O)Nc3cc(C(C)(C)C)nn3-c3ccc(C)cc3)cc2C)ccn1 [Example 23]
> 5.30
Cc1ccc(-n2nc(C(C)(C)C)cc2NC(=O)Nc2ccc(Oc3ccnc(NC(=O)CN4CCOCC4)c3)c3ccccc23)cc1 [Example 11]
> 8.00
Cc1ccc(-n2nc(C(C)(C)C)cc2NC(=O)Nc2ccc(Oc3ccnc(NC(=O)CNC(=O)c4ccncc4)c3)c3ccccc23)cc1 [Example 17]
> 8.00

###

The entries below are paired with their reported IC50.
target: p38 MAPK alpha (MAPK14) (Homo sapiens); construct: purchased Invitrogen; assay: Enzyme inhibition assay, p38 MAPK alpha (FRET, Z-LYTE, via MAPKAP-K2); type: biochemical; settings: Table 2; read-out: Enzyme p38α IC50
quantity-name: IC50

Cc1ccc(-n2nc(C(C)(C)C)cc2NC(=O)Nc2ccc(Oc3ccnc(NC(=O)CNC(=O)N4CCOCC4)c3)c3ccccc23)cc1
< 10 nM
COCC(=O)Nc1cc(Oc2ccc(NC(=O)Nc3cc(C(C)(C)C)nn3-c3ccc(C)cc3)cc2)ccn1
< 5000 nM
Cc1ccc(-n2nc(C(C)(C)C)cc2NC(=O)Nc2ccc(Oc3ccnc(NC(=O)CNC(N)=O)c3)c3ccccc23)cc1
< 10 nM
COCC(=O)Nc1cc(Oc2ccc(NC(=O)Nc3cc(C(C)(C)C)nn3-c3ccc(C)cc3)c(C)c2)ccn1
< 5000 nM
Cc1ccc(-n2nc(C(C)(C)C)cc2NC(=O)Nc2ccc(Oc3ccnc(NC(=O)CNC(=O)CCN4CCOCC4)c3)c3ccccc23)cc1
< 10 nM
COCC(=O)NCC(=O)Nc1cc(Oc2ccc(NC(=O)Nc3cc(C(C)(C)C)nn3-c3ccc(C)cc3)c3ccccc23)ccn1
< 10 nM
Cc1ccc(-n2nc(C(C)(C)C)cc2NC(=O)Nc2ccc(Oc3ccnc(NC(=O)CO)c3)c3ccccc23)cc1
< 5000 nM

###

Measured pEC50 accompanies every entry in the list below.
test system: U937 cells; assay: LPS-induced TNF alpha release in U937 cells; assay type: cell-based; settings: Homo sapiens; read-out: DU937 (LPS) TNFα REC50
pEC50: −log10 of the molar value.
quantity-name: pEC50

[2H]c1c([2H])c(C([2H])([2H])[2H])c([2H])c([2H])c1-n1nc(C(C)(C)C)cc1NC(=O)Nc1ccc(Oc2ccnc(NC(=O)COC)c2)c2ccccc12
> 8.00
CNC(=O)Nc1cc(Oc2ccc(NC(=O)Nc3cc(C(C)(C)C)nn3-c3ccc(C)cc3)c3ccccc23)ccn1
> 8.00
COCCC(=O)Nc1cc(Oc2ccc(NC(=O)Nc3cc(C(C)(C)C)nn3-c3ccc(C)cc3)c3ccccc23)ccn1
> 8.00
Cc1ccc(-n2nc(C(C)(C)C)cc2NC(=O)Nc2ccc(Oc3ccnc(NC(=O)N(C)CCN4CCOCC4)c3)c3ccccc23)cc1
> 8.00
Cc1ccc(-n2nc(C(C)(C)C)cc2NC(=O)Nc2ccc(Oc3ccnc(NC(=O)N4CCC(O)CC4)c3)c3ccccc23)cc1
> 8.00
COCC(=O)Nc1cc(Oc2ccc(NC(=O)Nc3cc(C(C)(C)C)nn3-c3ccc(C)cc3)c3ccccc23)ncn1
> 8.00

###

Test system: Differentiated U937 cells
Test: MTT assay (cell viability)
Type: cell-based, human
Conditions: Table 3, first MTT column; loss of cell viability at 1 μg/ml
Protocol: MTT Assay Differentiated U937 cells were pre-incubated with compound for 4 hrs in 5% FCS or 10% FCS for 24 hrs. […] After 1 hr incubation, the media were removed, 200 ul of DMSO added to each well and the plates were shaken lightly for 1 h prior to reading the absorbance at 550 nm. The percentage loss of cell viability was calculated for each well relative to vehicle (0.5% DMSO)-treatment. […]
quantity-name: DU937 (cell viability) MTT assay 4 h

Cc1ccc(-n2nc(C(C)(C)C)cc2NC(=O)Nc2ccc(Oc3ccnc(NC(=O)NCC(=O)N4CCOCC4)c3)c3ccccc23)cc1 [Example 58]
− (<=30%)
COCCNC(=O)CNC(=O)Nc1cc(Oc2ccc(NC(=O)Nc3cc(C(C)(C)C)nn3-c3ccc(C)cc3)c3ccccc23)ccn1 [Example 62]
− (<=30%)
Cc1ccc(-n2nc(C(C)(C)C)cc2NC(=O)Nc2ccc(Oc3ccnc(NC(=O)NCC(=O)N4CCCC4)c3)c3ccccc23)cc1 [Example 53]
− (<=30%)

###

tested on: U937 cells; assay: LPS-induced TNF alpha release in U937 cells; format: cell-based; settings: Homo sapiens; read-out: DU937 (LPS) TNFα REC50
pEC50: −log10 of the molar value.
quantity-name: pEC50

COCC(=O)Nc1nccc(Oc2ccc(NC(=O)Nc3cc(C(C)(C)C)nn3-c3ccc(C)cc3)c3ccccc23)n1
> 8.00
COCC(=O)Nc1cc(Oc2ccc(NC(=O)Nc3cc(C(C)(C)C)nn3-c3ccc(C)cc3)c(C)c2)ccn1
> 8.00
Cc1ccc(-n2nc(C(C)(C)C)cc2NC(=O)Nc2ccc(Oc3ccnc(NC(=O)CNC(=O)C4CCOCC4)c3)c3ccccc23)cc1
> 8.00
COCC(=O)Nc1cc(Oc2ccc(NC(=O)Nc3cc(C(C)(C)C)nn3-c3ccc(C)cc3)cc2)ccn1
> 8.00
Cc1ccc(-n2nc(C(C)(C)C)cc2NC(=O)Nc2ccc(Oc3ccnc(NC(=O)NCC(=O)NCCN4CCOCC4)c3)c3ccccc23)cc1
> 5.30
CSCC(=O)Nc1cc(Oc2ccc(NC(=O)Nc3cc(C(C)(C)C)nn3-c3ccc(C)cc3)c3ccccc23)ccn1
> 5.30
COCC(=O)Nc1cc(Oc2ccc(NC(=O)Nc3cc(C(C)(C)C)nn3-c3ccc(C)cc3)c3ccccc23)ccn1
> 8.00
Cc1ccc(-n2nc(C(C)(C)C)cc2NC(=O)Nc2ccc(Oc3ccnc(NC(=O)N4CCOCC4)c3)c3ccccc23)cc1
> 8.00

###

system: Differentiated U937 cells; assay: MTT assay (cell viability); format: cell-based, human; conditions: Table 2; loss of cell viability at 1 μg/ml
quantity-name: DU937 (cell viability) MTT assay 24 h

COCC(=O)Nc1cc(Oc2ccc(NC(=O)Nc3cc(C(C)C)nn3-c3ccc(C)cc3)c3ccccc23)ccn1
− (<=30%)
COCC(=O)NCC(=O)Nc1cc(Oc2ccc(NC(=O)Nc3cc(C(C)(C)C)nn3-c3ccc(C)cc3)c3ccccc23)ccn1
+ (>30%)
COCC(=O)Nc1cc(Oc2ccc(NC(=O)Nc3cc(C(C)(C)CO)nn3-c3ccc(C)cc3)c3ccccc23)ccn1
− (<=30%)
COCC(=O)Nc1cc(Oc2ccc(NC(=O)Nc3cc(C(C)(C)C)nn3-c3ccc(C)cc3)cc2)ccn1
+ (>30%)
COCC(=O)Nc1cc(Oc2ccc(NC(=O)Nc3cc(C(C)(C)C)nn3-c3ccc(C)cc3)c3ccccc23)ccn1
+ (>30%)
CCc1cc(NC(=O)Nc2ccc(Oc3ccnc(NC(=O)COC)c3)c3ccccc23)n(-c2ccc(C)cc2)n1
− (<=30%)
Cc1ccc(-n2nc(C(C)(C)C)cc2NC(=O)Nc2ccc(Oc3ccnc(NC(=O)CNC(=O)CCN4CCOCC4)c3)c3ccccc23)cc1
+ (>30%)
